Provenance of the data: ChEMBL document CHEMBL2396542

targetOrTestSystem: Presenilin-1 (Homo sapiens)
method: Modulation of human gamma-secretase presenilin-1 subunit expressed in CHO cells coexpressing human APP assessed as increase in amyloid beta 38 generation at EC50 after 24 hrs by ELISA relative to control
Type: cell-based
Overview of reported Activity across a group of compounds:
valueType: Activity (%)

1. Cc1c(C)c2c(c(C)c1OCC(=O)O)CCC(C)(CCCC(C)CCCC(C)CCCC(C)C)O2 (centres undefined) | 55
2. CC(C)=CCC/C(C)=C/CC/C(C)=C/Cn1c2ccc(Cl)cc2c2ccc(C(C)C(=O)O)cc21 (centres undefined) | 80
3. CC(C)=CCC/C(C)=C/CC/C(C)=C/COC(=O)C1(C)CCc2c(C)c(OCC(=O)O)c(C)c(C)c2O1 (centres undefined) | 35
4. CCCCCCCCCCCOc1c(C)c(C)c2c(c1C)CCC(C)(C(=O)O)O2 (centres undefined) | 65
5. CCCCCCCCOC(=O)C1(C)CCc2c(C)c(OCC(=O)O)c(C)c(C)c2O1 (centres undefined) | 60
6. CCCCCCCCCCCCCCOc1c(C)c(C)c2c(c1C)CCC(C)(C(=O)O)O2 (centres undefined) | 40
7. C/C(=C\COC(=O)C1(C)CCc2c(C)c(OCC(=O)O)c(C)c(C)c2O1)CCC[C@H](C)CCC[C@H](C)CCCC(C)C (some centres undefined) | 135
8. Cc1c(C)c2c(c(C)c1OCC(=O)O)CCC(C)(CCC[C@H](C)CCC[C@H](C)CCCC(C)C)O2 (some centres undefined) | 55
9. CCCCCCCCCCCOC(=O)C1(C)CCc2c(C)c(OCC(=O)O)c(C)c(C)c2O1 (centres undefined) | 100

====

Overview of reported IC50 across a group of compounds:
targetOrTestSystem: Presenilin-1 (Homo sapiens)
method: Modulation of human gamma-secretase presenilin-1 subunit expressed in CHO cells coexpressing human APP assessed as decrease in amyloid beta 40 generation after 24 hrs by ELISA
Assay type: cell-based
valueType: IC50

1) Cc1c(C)c2c(c(C)c1O)CCC(C)(CCCC(C)CCCC(C)CCCC(C)C)O2 (racemic) | > 100 µM
2) CCCCCCCCCCCOC(=O)C1(C)CCc2c(C)c(OCC(=O)O)c(C)c(C)c2O1 (stereo unspecified) | 23 µM
3) CCCCCCCCCCCCCCOC(=O)C1(C)CCc2c(C)c(OCC(=O)O)c(C)c(C)c2O1 (stereo unspecified) | 34 µM
4) CCCCCCCCOC(=O)C1(C)CCc2c(C)c(OCC(=O)O)c(C)c(C)c2O1 (stereo unspecified) | 42 µM
5) CCCCCCCCCCCCCCOc1c(C)c(C)c2c(c1C)CCC(C)(C(=O)O)O2 (stereo unspecified) | 29 µM
6) Cc1c(C)c2c(c(C)c1OCC(=O)O)CCC(C)(CCC[C@H](C)CCC[C@H](C)CCCC(C)C)O2 (stereo partly specified) | 24 µM
7) C/C(=C\Cn1c2ccc(Cl)cc2c2ccc(C(C)C(=O)O)cc21)CCC[C@H](C)CCC[C@H](C)CCCC(C)C (stereo partly specified) | > 50 µM
8) CCCCCCCCOc1c(C)c(C)c2c(c1C)CCC(C)(C(=O)O)O2 (stereo unspecified) | > 50 µM
9) CC(C)=CCC/C(C)=C/CC/C(C)=C/COc1c(C)c(C)c2c(c1C)CCC(C)(C(=O)O)O2 (stereo unspecified) | 39 µM
10) CC(C)=CCC/C(C)=C/CC/C(C)=C/COC(=O)C1(C)CCc2c(C)c(OCC(=O)O)c(C)c(C)c2O1 (stereo unspecified) | 25 µM
11) CCCCCCCCCCCOc1c(C)c(C)c2c(c1C)CCC(C)(C(=O)O)O2 (stereo unspecified) | > 50 µM
12) COC(=O)COc1c(C)c(C)c2c(c1C)CCC(C)(CCCC(C)CCCC(C)CCCC(C)C)O2 (stereo unspecified) | > 100 µM
13) Cc1c(C)c2c(c(C)c1OCC(=O)O)CCC(C)(CCCC(C)CCCC(C)CCCC(C)C)O2 (stereo unspecified) | 26 µM
14) C/C(=C\COC(=O)C1(C)CCc2c(C)c(OCC(=O)O)c(C)c(C)c2O1)CCC[C@H](C)CCC[C@H](C)CCCC(C)C (stereo partly specified) | 36 µM
15) CC(C)=CCC/C(C)=C/CC/C(C)=C/Cn1c2ccc(Cl)cc2c2ccc(C(C)C(=O)O)cc21 (stereo unspecified) | 26 µM
16) C/C(=C\COc1c(C)c(C)c2c(c1C)CCC(C)(C(=O)O)O2)CCC[C@H](C)CCC[C@H](C)CCCC(C)C (stereo partly specified) | 42 µM

====

Overview of reported IC50 across a group of compounds:
targetOrTestSystem: Presenilin-1 (Homo sapiens, UniProt P49768)
method: Modulation of human gamma-secretase presenilin-1 subunit expressed in CHO cells coexpressing human APP assessed as decrease in amyloid beta 42 generation after 24 hrs by ELISA
Assay type: cell-based
measurementContext: read-out: IC50
valueType: IC50 (µM)

1) CCCCCCCCCCCOc1c(C)c(C)c2c(c1C)CCC(C)(C(=O)O)O2 (configuration not stated) | 28
2) CCCCCCCCCCCCCCOC(=O)C1(C)CCc2c(C)c(OCC(=O)O)c(C)c(C)c2O1 (configuration not stated) | 22
3) Cc1c(C)c2c(c(C)c1OCC(=O)O)CCC(C)(CCCC(C)CCCC(C)CCCC(C)C)O2 (configuration not stated) | 12
4) CCCCCCCCCCCOC(=O)C1(C)CCc2c(C)c(OCC(=O)O)c(C)c(C)c2O1 (configuration not stated) | 12
5) CCCCCCCCCCCCCCOc1c(C)c(C)c2c(c1C)CCC(C)(C(=O)O)O2 (configuration not stated) | 14
6) CCCCCCCCOC(=O)C1(C)CCc2c(C)c(OCC(=O)O)c(C)c(C)c2O1 (configuration not stated) | 35
7) CC(C)=CCC/C(C)=C/CC/C(C)=C/Cn1c2ccc(Cl)cc2c2ccc(C(C)C(=O)O)cc21 (configuration not stated) | 4
8) CC(C)=CCC/C(C)=C/CC/C(C)=C/COc1c(C)c(C)c2c(c1C)CCC(C)(C(=O)O)O2 (configuration not stated) | 28
9) C/C(=C\COC(=O)C1(C)CCc2c(C)c(OCC(=O)O)c(C)c(C)c2O1)CCC[C@H](C)CCC[C@H](C)CCCC(C)C (some centres not stated) | 24
10) C/C(=C\Cn1c2ccc(Cl)cc2c2ccc(C(C)C(=O)O)cc21)CCC[C@H](C)CCC[C@H](C)CCCC(C)C (some centres not stated) | 23

====

targetOrTestSystem: Presenilin-1 (Homo sapiens, UniProt P49768)
method: Modulation of human gamma-secretase presenilin-1 subunit expressed in CHO cells coexpressing human APP assessed as increase in amyloid beta 38 generation after 24 hrs by ELISA
Format: cell-based
valueType: EC50

1. Cc1c(C)c2c(c(C)c1O)CCC(C)(CCCC(C)CCCC(C)CCCC(C)C)O2 (racemic) | > 100 µM
2. C/C(=C\Cn1c2ccc(Cl)cc2c2ccc(C(C)C(=O)O)cc21)CCC[C@H](C)CCC[C@H](C)CCCC(C)C (some centres undefined) | > 50 µM
3. CCCCCCCCOc1c(C)c(C)c2c(c1C)CCC(C)(C(=O)O)O2 (centres undefined) | > 50 µM
4. COC(=O)COc1c(C)c(C)c2c(c1C)CCC(C)(CCCC(C)CCCC(C)CCCC(C)C)O2 (centres undefined) | > 100 µM
